- assay.notes: qHTS assay for small molecule disruptors of the mitochondrial membrane potential (AID 720635)
- condition.info: HepG2 mitochondrial membrane potential, Mito-MPS dye ratio; series mostly up to 83.2 µM
- Text: U.S. Tox21 Program National Center for Advancing Translational Sciences [NCATS] NIH Chemical Genomics Center [NCGC] U.S. Environmental Protection Agency [EPA] National Institutes of Environmental Health Sciences [NIEHS] National Toxicology Program [NTP] U.S. Food and Drug Administration [FDA] […] The dye accumulates in the mitochondria of healthy cells as aggregates, with red fluorescence. […]
Results filed as inconclusive are left out. Activity calls are given as the source filed them. The call rests on the fitted dose curve; in most records, active means well fitted inhibition curve with a large enough effect in the signal ratio in the repeat runs; inconclusive means weak or mixed curves, or effect the other way; inactive means flat fitted curve, though single readings scatter; the % refers to the signal ratio.
Classes used: 1 for active, 0 for inactive

CCN[C@H]1CN(CCCOC)S(=O)(=O)c2sc(S(N)(=O)=O)cc21 :: 0
CC(C)C(=O)OCC(C)(C)C(O)C(C)C (stereo unspecified) :: 0
CC1=C(O)C(=O)OC1C (stereo unspecified) :: 0
CN(CC1(C)CCCO1)S(=O)(=O)c1ccc(Cl)c(S(N)(=O)=O)c1 (stereo unspecified) :: 0
Nc1cccc(S(=O)(=O)O)c1 :: 1
O=C(O)[C@@H](O)[C@H](O)[C@H](O)[C@@H](O)C(=O)O :: 0

###

- assay.notes: qHTS assay to identify small molecule agonists of the endoplasmic reticulum stress response signaling pathway (AID 1159516); further: on the % scale 0 is the no-effect control and ±100 the full control effect
- condition.info: ESRE-bla HeLa, ER stress beta-lactamase reporter, 5 h; series mostly up to 61 µM
Records with an inconclusive call do not appear. The source made the active and inactive calls. The call rests on the fitted dose curve; in most records, active means well fitted activation curve with a large enough effect in the signal ratio in the repeat runs (not every such curve was filed as active); inconclusive means weak or mixed curves, or effect the other way; inactive means flat fitted curve, though single readings scatter; the % refers to the signal ratio.
experimental.readout: activation

O=Cc1ccc(F)c(Br)c1 :: inactive
CCCCCCn1c(=O)c2c(ncn2C)n(C)c1=O :: inactive
CC(C)CC(=O)OCc1ccccc1 :: inactive
CCN(CC)CCNC(=O)COc1ccc(Cl)cc1 :: inactive
NS(=O)(=O)c1cc(-c2nn[nH]n2)c(NCc2cccs2)cc1Cl :: inactive
C=CCCC=C :: inactive
CN1[C@@H]2CC[C@H]1CC(OC(=O)c1c[nH]c3ccccc13)C2 (stereo partly drawn) :: inactive
COc1ccc(Nc2ccc(OC)cc2)cc1 :: inactive
COC(=O)c1ccc(OC)cc1 :: inactive
Cc1nnc(SCC2=C(C(=O)O)N3C(=O)[C@@H](NC(=O)Cn4cnnn4)[C@H]3SC2)s1 :: inactive
Cc1cccc(C)c1NC(=O)CN1CCCCCC1 :: inactive
Cc1onc(-c2ccccc2)c1C(=O)Cl :: inactive
C=CC(C)(O)CC/C=C(\C)CCC=C(C)C (stereo not drawn) :: inactive

###

- assay.notes: qHTS assay to identify small molecule agonists of the hypoxia (HIF-1) signaling pathway - cell viability counter screen (AID 1224844); further: on the % scale 0 is the no-effect control and ±100 the full control effect; nearly all actives have a fitted effect of over 50% in size
- condition.info: HRE-bla ME-180 viability, CellTiter-Glo luminescence, 17 h; series mostly up to 76.8 µM
- From the text: National Center for Advancing Translational Sciences [NCATS] NIH Chemical Genomics Center [NCGC] U.S. Environmental Protection Agency [EPA] National Institutes of Environmental Health Sciences [NIEHS] National Toxicology Program [NTP] U.S. Food and Drug Administration [FDA] Hypoxia-inducible factor-1 (HIF-1) is the major hypoxia-regulated transcription factor that controls cellular responses to low oxygen concentration. […]
Records with an inconclusive call do not appear. Activity calls are given as the source filed them. Calls follow the shape of the full dose curve.
experimental.readout: activity change, negative = cytotoxicity

C[C@]12C(=O)OC(=O)[C@H]1[C@H]1C=C[C@@H]2C1 :: inactive
Cc1ccc(C=O)s1 :: inactive
CC(CNC1CCCCC1)OC(=O)c1ccccc1 (configuration not stated) :: inactive
CCN(CCCc1ccccc1)CCCc1ccccc1 :: inactive
CN1CCN(c2c(F)cc3c(=O)c(C(=O)O)cn4c3c2SCC4)CC1 :: inactive
CCCCCCC :: inactive
CCCCCCOc1ccc(N)cc1 :: inactive

###

- assay.notes: qHTS assay to identify small molecule antagonists of the farnesoid-X-receptor (FXR) signaling pathway - cell viability counter screen (AID 743221); further: on the % scale 0 is the no-effect control and ±100 the full control effect; nearly all actives have a fitted effect of over 50% in size
- condition.info: FXR-bla HEK293T viability, CellTiter-Glo luminescence, 16 h; series mostly up to 62.6 µM
Results filed as inconclusive are left out. The source made the active and inactive calls. Calls come from the whole dose curve; as a rule, active = well fitted cell-killing curve with a large enough effect in the repeat runs (not every such curve was filed as active); inconclusive = weak or mixed curves, or effect the other way; inactive = no such curve, though single readings can be large or run the other way.
experimental.readout: outcome

CCCCCCn1c(=O)c2c(ncn2C)n(C)c1=O :: inactive
CCCCCCCCc1ccc(S(=O)(=O)O)cc1 :: inactive
CC1=C(O)C(=O)OC1C (stereo not given) :: inactive
CCCCCCCCCCCCCCCCOP(=O)([O-])OCC[N+](C)(C)C :: inactive
CCOC(=O)COc1ccc2c(c1)CC(NCC(O)c1cccc(Cl)c1)CC2 (stereo not given) :: inactive
CC1(C)S[C@@H]2[C@H](NC(=O)C(C(=O)O)c3ccccc3)C(=O)N2[C@H]1C(=O)O (stereo not given in full) :: inactive
c1ccc(CN(CC2=NCCN2)c2ccccc2)cc1 :: inactive
C[C@@H]1CN(c2c(F)c(N)c3c(=O)c(C(=O)O)cn(C4CC4)c3c2F)C[C@H](C)N1 :: inactive
ICCc1ccccc1 :: inactive
CCCCCOc1ccc(C2SC(=O)NC2=O)cc1OCC (stereo not given) :: inactive
Cc1c(N)cccc1N :: inactive
CCCOc1ccc2c(c1)CC[C@@H]1[C@@H]2CC[C@]2(C)C(OC)CC[C@@H]12 (stereo not given in full) :: inactive
COC(=O)/C=C(/C)N :: inactive
CN(C)C(=O)NC1(c2ccccc2)CCN(CCC[C@]2(c3ccc(Cl)c(Cl)c3)CCCN(C(=O)c3ccccc3)C2)CC1 :: inactive
Oc1ccccc1F :: inactive
CC(C)S :: inactive
CC(C)NC[C@@H](O)COc1cccc2ccccc12 :: inactive
N#CSCC(=O)O :: inactive
Oc1ccccc1C=NCc1ccccc1 :: inactive
C=CC(C)(O)CC/C=C(\C)CCC=C(C)C (stereo not given) :: inactive

###

- assay.notes: qHTS assay to identify small molecule HDAC inhibitors (AID 1259364); further: potency means the concentration at half of the fitted maximal effect;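 further: wild-type HCT-116 cells with endogenous class I/II HDAC activity; nearly all actives have a fitted effect of over 45% in size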
- condition.info: HCT-116 HDAC-Glo I/II luminescence, 2 h; series mostly up to 92.4 µM
Records with an inconclusive call do not appear. Active and inactive are the calls of the source. Calls follow the shape of the dose curve; as a rule, active = well fitted inhibition curve with a large enough effect in the repeat runs; inconclusive = weak or mixed curves; inactive = flat fitted curve, though single readings scatter.
experimental.readout: Potency

CCCCNc1cc(C(=O)O)cc(S(N)(=O)=O)c1Oc1ccccc1 :: inactive
O=Cc1ccc(F)c(Br)c1 :: inactive
COc1cc(C)ccc1C(C)C :: inactive
Cc1ccsc1C(=CCCN1CCC[C@@H](C(=O)O)C1)c1sccc1C :: inactive
CC1CN(c2ccccc2)NC1=O (stereo not given) :: 24.3 µM (active)

###

- assay.notes: qHTS assay to identify small molecule agonists of the estrogen related receptor signaling pathway with the pleiotropic PPARgamma coactivator (PGC) from Tox21 10K library (AID 1224842); further: nearly all actives have a fitted effect of over 15% in size; further: potency means the concentration at half of the fitted maximal effect; on activation: on the % scale 0 is the no-effect control and ±100 the full control effect
- condition.info: PGC/ERR reporter cell line, luciferase ONE-Glo, 18 h; series mostly up to 92.4 µM
Results filed as inconclusive are left out. Active and inactive are the calls of the source. The call rests on the fitted dose curve; in most records, active means well fitted activation curve with a large enough effect in the repeat runs; inconclusive means weak or mixed curves, or effect the other way; inactive means no such curve, though single readings can be large or run the other way.
experimental.readout: Potency

CCOc1ccc(NC(N)=O)cc1 :: inactive
CC1=C(CC(=O)O)c2cc(F)ccc2/C1=C\c1ccc(S(C)(=O)=O)cc1 :: inactive
COc1ccc(Nc2ccc(OC)cc2)cc1 :: 27.8 µM (active)
OC[C@H]1O[C@@H](O[C@H]2[C@H](O)[C@@H](O)[C@H](O)O[C@@H]2CO)[C@H](O)[C@@H](O)[C@H]1O :: inactive
Cc1ncc(CO)c(CN)c1O :: inactive
CCOc1ccc2nc(N)sc2c1 :: 27.1 µM (active)
CC[C@H]1CC[C@H](NCc2cc3c(cc2OC)[C@H]2C[C@H]2C(=O)N3C)[C@H](c2ccccc2)N1 :: inactive
O=[N+]([O-])c1nccn1CO[C@@H](CO)[C@H](O)CO :: inactive
CCCCNc1ccc(C(=O)OCCN(CC)CC)cc1 :: inactive
C[C@]12C(=O)OC(=O)[C@H]1[C@H]1C=C[C@@H]2C1 :: inactive
COC(=O)c1ccc2cc(C(=O)OC)ccc2c1 :: 4.44 µM (active)
O=C(CC(=O)C(F)(F)F)c1ccccc1 :: 6.2 µM (active)
COc1nc(C)nc(NC(=O)NS(=O)(=O)c2ccccc2OCCCl)n1 :: inactive
CCOC(=O)c1cc(=O)c2c(OCC(COc3cccc4oc(C(=O)OCC)cc(=O)c34)OC(=O)[C@@H](N)CCCCN)cccc2o1 :: inactive
CCOC(=O)COc1ccc2c(c1)CC(NCC(O)c1cccc(Cl)c1)CC2 (stereo not drawn) :: inactive
Cn1cnc2c(F)c(Nc3ccc(Br)cc3Cl)c(C(=O)NOCCO)cc21 :: inactive
CCc1cc(Cl)c(OC)c(C(=O)NC[C@@H]2CCCN2CC)c1O :: inactive
Cc1nc(-c2ccccn2)ncc1C(=O)Nn1cc(C)c2cc(F)ccc21 :: inactive
OCCN(CCO)CCN(CCO)CCO :: inactive
CCOc1ccc(OCC)c(Cl)c1 :: inactive
CC(C)C1=CC2=CC[C@@H]3[C@](C)(CCC[C@@]3(C)C(=O)O)[C@H]2CC1 :: inactive
Cc1ccc([N+](=O)[O-])c(N)c1 :: inactive
CCCCNCCCC :: inactive
